assay: amyloid nucleation score (Sup35N fusion, yeast selection) (log enrichment); library NNK3; higher = more nucleation; inactive = no reads after selection;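 further: zero at mode of non-aggregating sequences after 7 days selection at 30°C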
Measured Quantity: amyloid nucleation score

         query_sequence  readout_value
0  YDNLTARESSYFIFFCFLVY       inactive
1           KLQYYVALSAT       inactive
2          NWKLYWYNVSCL           1.65
3  TLLFSIYCIFLNPSVQRRFE         -0.028
4            LLWYKLSELR       inactive
5             LGNGSLVIG          0.033
6           KLRTSGAILVF       inactive
7        SRFQWLWKMCSNDG       inactive
